- system name: MAGI2_4, Q86UL8
- Sequence (Q86UL8 772-865): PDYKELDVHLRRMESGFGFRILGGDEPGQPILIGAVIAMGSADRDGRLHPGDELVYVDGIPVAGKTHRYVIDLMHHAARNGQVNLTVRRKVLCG
- method: holdup assay
- Set-up: key: below the threshold = too weak to quantify, mostly under pKd 3.1 to 4
- condition summary: plain residues with an end cap or a label only (N-terminal biotin on a linker: ado-ado)
metric: pKd

- KSGKQTMLVV [TRIM29, Q14134]: 3.55
- YYKRPVQEWV [MMP24, Q9Y5R2]: 4.09
- YRLAQESGLV [ABCC6, O95255]: 3.89
- PDGQCTVTEV [RNF146, Q9NTX7]: 4.38
- AKPSRISTVV [IQSEC2, Q5JU85]: 4.68
- PPYRHRNTVV [ERBB4, Q15303]: 4.43
- CLREWCDAFL [BANF1, O75531]: 3.73
